Reference for the values: ChEMBL document CHEMBL3988442

Tested on: Wolbachia pipientis
Method summary: Anti-Wolbachia Cell-Based Screen
Format: functional
Parameters: scale not given: in the data most compounds retested in dose-response had high values
Condition context: 5 µM
In all, about 48,000 compounds went through this assay and about 13,000 (27%) showed an effect of 50% or more. The list shows a part of the results.
Quantity kind: Percent Effect
Answer as a quantity: numeral, then unit.

These solved cases illustrate the format of a correct answer.
CCN(CC)C(=O)Cn1nc(C(C)C)c2cnn(C(C)(C)C)c2c1=O; 8.022%
Fc1ccc(-c2nnc(CN3CCn4c(nnc4C4CC4)C3)o2)cc1; -8.144%
CO[C@@H]1CCN(S(=O)(=O)c2cn(C)cn2)[C@H]1Cc1ccncc1.O=C(O)C(F)(F)F; 7.215%
O=C(O)[C@@H]1CN(Cc2ccc3nsnc3c2)C[C@H]1c1ccncc1; 20.11%

Turning now to a further record.
### Prompt Using the record for CCN(Cc1cnn(C)c1)S(=O)(=O)N1CCCC1c1ccco1 (stereo not drawn) , report its Percent Effect.
### Response 12.89%

* * *

Test system: Wolbachia pipientis
Method summary: Anti-Wolbachia Cell-Based Screen
Type: functional
Parameters: scale not given: in the data most compounds retested in dose-response had high values
Condition context: 5 µM
Screen size: about 48,000 compounds; about 13,000 (27%) showed an effect of 50% or more. Some of the results follow.
Here the recorded Percent Effect is given for each entry.
Response body: numeric value in %, unit text excluded.

Consider the reported Percent Effect for these compounds:
Cl.OC[C@H]1CC[C@]2(CC1)CN(Cc1ccccn1)Cc1ccccc1O2; -8.81
CC(=O)N1CCCC1c1cccc(Cc2ccccc2Cl)n1 (centres undefined); 110.5
CC(C)CCC(=O)N1CCC(c2nnc(CN(C)CCO)n2C)CC1; -15.68
COCC1(CNC(=O)[C@@]23CNC[C@@H]2CN(C2CCCC2)C3)CC1; -67.22
Cc1ccc(CN2Cc3ccccc3O[C@]3(CC[C@H](CO)CC3)C2)s1.Cl; 116.6

// next item, Percent Effect requested
### Prompt Query (compound): Cc1nc(CN2CCN(C(=O)COCc3ccccc3)CC2)no1 ; field requested: Percent Effect
### Response 3.654

* * *

System: Wolbachia pipientis
Method summary: Anti-Wolbachia Cell-Based Screen
Assay type: functional
Design: scale not given: in the data most compounds retested in dose-response had high values
Condition context: 5 µM
About 13,000 (27%) of roughly 48,000 compounds showed an effect of 50% or more. Some of the results follow.
Quantity kind: Percent Effect (%)
Number in %, nothing else.

OC(CNCCn1cccn1)c1ccc2c(c1)OCCO2 (stereo not drawn); 4.861
CCCC(C)CN1CCC(n2cc(CCCO)nn2)CC1 (stereo not drawn); -3.716
CNS(=O)(=O)Cc1cccc(CNc2ccc(C#N)cn2)c1; 5.411
COCCC(=O)N1Cc2nc3c(C)c(-c4cccs4)nn3c(O)c2C1; 108.4
CC(=O)Nc1ccc(Oc2ccc(CN3CCCC3)cc2F)cc1; 96.27

### Prompt I'd like to know its Percent Effect. The compound in question is Cc1nc(N2CCN(C(=O)C(C)(C)C)CC2)cc(-n2cnc(C)c2C)n1
### Response -0.05678

### Prompt Name the reported Percent Effect value associated with the compound CC(NC(=O)Cn1cccn1)c1ccc2c(c1)OCCCO2 (stereo not drawn)
### Response -3.831

* * *

Test system: Wolbachia pipientis
Method summary: Anti-Wolbachia Cell-Based Screen
Assay type: functional
Design: scale not given: in the data most compounds retested in dose-response had high values
Condition context: 5 µM
Out of some 48,000 compounds screened, about 13,000 (27%) showed an effect of 50% or more. Some of the results follow.
Parameter: Percent Effect. Scope: all listed entries.
// units = %; emit number, no label

Reference set (2 entries):
Cc1cc(C)n(CC(=O)NC2CCCCNC2=O)n1 (stereo not drawn); -5.953
O=C(c1ccnnc1)N1CCO[C@H]2[C@H](Oc3cccnc3)CC[C@@H]21; 84

### Prompt Any idea what Percent Effect was measured for COCC(=O)N1CCC(c2noc3nc(C)cc(C(F)(F)F)c23)CC1 ?
### Response -9.714

### Prompt Given the entry Cc1cnc(N2CC[C@@H]3CN(CCC(C)C)S(=O)(=O)[C@@H]3CC2)nc1 , report its measured Percent Effect.
### Response 7.109

### Prompt Query (compound): O=C(CS(=O)(=O)c1ccccc1Cl)NC1CCCCNC1=O (stereo not drawn) ; field requested: Percent Effect
### Response 7.591

### Prompt Given the compound O=C(C1=CCCC1)N1C[C@H](OCc2cccnc2)[C@H]2OCCC[C@H]21 , what is its reported Percent Effect?
### Response -3.807

### Prompt Endpoint output: Percent Effect of CCc1nnc(NCc2cccc(OC)c2OC)o1 . Value?
### Response 1.756

### Prompt Please give the measured Percent Effect for this compound: O=C(c1ccnnc1)N1CCO[C@H]2[C@@H](OCc3cccnc3)CC[C@@H]21
### Response -4.529

* * *

System: Wolbachia pipientis
Method summary: Anti-Wolbachia Cell-Based Screen
Format: functional
Parameters: scale not given: in the data most compounds retested in dose-response had high values
Condition context: 5 µM
In all, about 48,000 compounds went through this assay and about 13,000 (27%) showed an effect of 50% or more. The list shows a part of the results.
Percent Effect values, listed per item
The response must be a number in % with no trailing unit.

Below, each entry is followed by its recorded Percent Effect result.
O=C(NCC1(O)CCSC1)c1ccoc1 (configuration not stated); 12.35
O=c1[nH]c(-c2ccccn2)nc2c1CCN(Cc1cccc(O)c1)C2; 110.8
CC(C)Cc1noc(CN2CCN(CCO)CC2)n1; -13.58
CC(C)Cc1noc(CN2CCOCC2)n1; -2.166
COc1ccccc1CN1C(=O)O[C@@H]2CN(c3ccccn3)C[C@@H]21; 2.644

### Prompt Which Percent Effect reading was recorded for the molecule CNC(=O)CCOC(=O)c1cccc(-n2cccn2)c1 ?
### Response -2.822

### Prompt Returns the measured Percent Effect for the input molecule. Input: CSC1(CNC(=O)c2cccc(-n3cccn3)c2)CCOCC1
### Response 126.6

### Prompt Entry Cc1cc(C(=O)NCC2CCC3(CC2)OCCO3)[nH]n1 : reported Percent Effect = ?
### Response -25.64

### Prompt Would you mind telling me what Percent Effect value was observed for CC(CNC(=O)c1cccc(-n2cccn2)c1)Cn1ccnc1 (configuration not stated) ?
### Response -7.057

### Prompt Consider the molecule O=C(NCC1CCC2(CC1)OCCO2)c1ccncc1F and give its measured Percent Effect.
### Response -3.003

### Prompt Entry CC1CCCCN1Cc1nc(Cc2ccccc2)no1 (configuration not stated) has what Percent Effect?
### Response -14.27

### Prompt Param item = Cn1cnc2c1CCN(Cc1nc(Cc3ccccc3)no1)C2 ; retrieve measured Percent Effect.
### Response -6.335

* * *

System: Wolbachia pipientis
Method summary: Anti-Wolbachia Cell-Based Screen
Assay type: functional
Set-up: scale not given: in the data most compounds retested in dose-response had high values
Condition context: 5 µM
Out of some 48,000 compounds screened, about 13,000 (27%) showed an effect of 50% or more. Some of the results follow.
Quantity kind: Percent Effect (%)
Write the number in % without appending the unit.

### Prompt What value of Percent Effect has been recorded for this entry: CC(C)CCS(=O)(=O)CC(=O)N1CCCC1c1cnn(C)c1 (configuration not stated)
### Response 5.656

### Prompt Endpoint output: Percent Effect of c1ccc2c(Cc3nnc([C@H]4CCN(C5CCC5)C4)o3)c[nH]c2c1 . Value?
### Response -3.783

### Prompt Item under review: CSc1ccc(NC(=O)COCc2ccccc2)nc1 . Reported Percent Effect?
### Response -20.64

### Prompt Item CC(C)CCn1cc(C(C(=O)O)N2CCCN(C3CCCC3)CC2)cn1 (configuration not stated) has what recorded Percent Effect?
### Response 99.16

### Prompt Given CC(C)CCn1cc(C(C(=O)O)N2CCC(N3CCSCC3)CC2)cn1 (configuration not stated) , state its recorded Percent Effect.
### Response 123.7

### Prompt Return reported Percent Effect; argument: CNC(=O)CN1CCC(NC(=O)CC(C)CCc2ccccc2)CC1 (configuration not stated)
### Response 1.042

### Prompt Fill in the blank: the reported Percent Effect of CN(Cc1cc(Cl)cc2cccnc12)CC1CCN(CCO)CC1 is ____.
### Response -4.482

### Prompt GET /values?readout=Percent Effect&item= COCCn1cc(NC(=O)NCC(C)N2CCOCC2)cn1 (configuration not stated)
### Response -7.646

* * *

Test system: Wolbachia pipientis
Method summary: Anti-Wolbachia Cell-Based Screen
Format: functional
Parameters: scale not given: in the data most compounds retested in dose-response had high values
Condition context: 5 µM
Hit rate of the full screen: of about 48,000 compounds, about 13,000 (27%) showed an effect of 50% or more. This is one part of the list.
# Lookup of reported Percent Effect keyed by entry
Just the number in %, nothing appended.

Worked cases, Percent Effect given:
CC1=C(C#N)C(=O)NC(=O)/C1=C\c1c(C)nn(-c2ccccc2)c1O; 95.98
CC(C)Oc1ccccc1-c1cc(CN)ccc1F; 10.62
CC(C)(C)C(O)CN1CCN(Cc2nccn2CC(F)(F)F)CC1 (stereo unspecified); -1.053

### Prompt Which measured Percent Effect belongs to CC1=C(C#N)C(=O)NC(=O)/C1=C\c1c(C)nn(-c2ccc(Cl)cc2)c1O , tested on Wolbachia pipientis?
### Response 109.3

### Prompt Notebook: pull reported Percent Effect for Wolbachia pipientis, entry CCC(=O)N1CC[C@H]2[C@H](C[C@@H](Cn3cccn3)N2c2nccs2)C1.O=C(O)C(F)(F)F.O=C(O)C(F)(F)F
### Response 119.1
